Test system: Huh-7 HCV replicon cells (1b replicon)
assay_notes: anti-HCV activity in Huh-7 cell line harboring a HCV replicon (luciferase readout)
Format: cell-based
condition_context: Hepatitis C virus, Huh-7, read-out: Replicon 1b % inhibition at 1 μM, 1b replicon, 1 μM compound
I'd be grateful if you could share measured inhibition at 1 µM for these entries.
Give the value in % but do not write % after it.

Tested system Huh-7 HCV replicon cells (1b replicon); inhibition at 1 µM recorded for C[C@@H]1NC(=O)[C@H](C2CC2)OC(=O)C2(/C=C/c3ccc4ccc(nc4c3)[C@@H](C)NC(=O)[C@@H]3CCCN(N3)C1=O)CCC(O)CC2 (stereo partly drawn) was 97

Tested system Huh-7 HCV replicon cells (1b replicon); inhibition at 1 µM recorded for `CC(=O)O[C@H]1CC[C@@]2(/C=C/c3ccc4ccc(nc4c3)[C@@H](C)NC(=O)[C@@H]3CCCN(N3)C(=O)[C@H](C)NC(=O)[C@H](C(C)C)OC2=O)CC1` was 100

Tested system Huh-7 HCV replicon cells (1b replicon); inhibition at 1 µM recorded for CC(C)[C@@H]1OC(=O)C2(/C=C/c3ccc4ccc(nc4c3)[C@@H](C)NC(=O)[C@@H]3CCCN(N3)C(=O)[C@H](C)NC1=O)CCCOC2 (single isomer, unassigned) [Compound 51] was 100

---

I'd be grateful if you could share measured inhibition at 1 µM for these entries.
Tested on: Huh-7 HCV replicon cells (1b replicon)
assay_notes: anti-HCV activity in Huh-7 cell line harboring a HCV replicon (luciferase readout)
Assay type: cell-based
condition_context: Hepatitis C virus, Huh-7, read-out: Replicon 1b % inhibition at 1 μM, 1b replicon, 1 μM compound
Give the value in % but do not write % after it.

The reported value for CC(C)C(=O)O[C@H]1CC[C@@]2(/C=C/c3ccc4ccc(nc4c3)[C@@H](C)NC(=O)[C@@H]3CCCN(N3)C(=O)[C@H](C)NC(=O)[C@H](C(C)C)OC2=O)CC1 [Compound 80] in terms of inhibition at 1 µM is 99

The reported value for CC(C)[C@@H]1OC(=O)CCc2ccc(cc2)-c2cccc(c2)[C@@H](C)NC(=O)[C@@H]2CCCN(N2)C(=O)[C@H](C)NC1=O [Compound 6] in terms of inhibition at 1 µM is 94

The reported value for C[C@@H]1NC(=O)[C@H](C2CCC2)OC(=O)C(C)(C)/C=C/c2ccc3ccc(nc3c2)[C@@H](C)NC(=O)[C@@H]2CCCN(N2)C1=O [Compound 52] in terms of inhibition at 1 µM is 100

The reported value for CO[C@@H](C)[C@@H]1OC(=O)C(C)(C)/C=C/c2ccc3ccc(nc3c2)[C@@H](C)NC(=O)[C@@H]2CCCN(N2)C(=O)[C@H](C)NC1=O [Compound 54] in terms of inhibition at 1 µM is 77

The reported value for CC(C)[C@@H]1OC(=O)C2(/C=C/c3ccc4ccc(nc4c3)[C@@H](C)NC(=O)[C@@H]3CCCN(N3)C(=O)[C@H](C)NC1=O)COC(CF)(CF)OC2 [Compound 107] in terms of inhibition at 1 µM is 100

The reported value for CC(=O)O[C@H]1CC[C@]2(/C=C/c3ccc4ccc(nc4c3)[C@@H](C)NC(=O)[C@@H]3CCCN(N3)C(=O)[C@H](C)NC(=O)[C@H](C(C)C)OC2=O)CC1 [Compound 112] in terms of inhibition at 1 µM is 100

The reported value for CC(C)[C@H]1C(=O)N[C@@H](C)C(=O)N2CCC[C@H](N2)C(=O)N[C@H](C)c2cccc(c2)/C=C/CCCCC(=O)N1C [Compound 17] in terms of inhibition at 1 µM is 39

The reported value for CC(C)[C@@H]1OC(=O)C(C)(C)/C=C/c2cc3cc(ccc3cn2)[C@@H](C)NC(=O)[C@@H]2CCCN(N2)C(=O)[C@H](C)NC1=O [Compound 69] in terms of inhibition at 1 µM is 100

The reported value for CC(C)[C@@H]1N[C@@H](C(F)(F)F)C(C)(C)/C=C/c2ccc3ccc(nc3c2)[C@@H](C)OC(=O)[C@@H]2CCCN(N2)C(=O)[C@H](C)NC1=O [Compound 32] in terms of inhibition at 1 µM is 56

The reported value for CC(C)[C@@H]1OC(=O)C2(/C=C/c3ccc4ccc(nc4c3)[C@@H](C)NC(=O)[C@@H]3CCCN(N3)C(=O)[C@H](C)NC1=O)COC(=O)OC2 [Compound 98] in terms of inhibition at 1 µM is 90

The reported value for CO[C@@H]1/C=C/c2cc3cc(ccc3cn2)[C@@H](C)NC(=O)[C@@H]2CCCN(N2)C(=O)[C@H](C)NC(=O)[C@H](C(C)C)OC(=O)[C@@H]1C [Compound 2] in terms of inhibition at 1 µM is 98

---

I'd be grateful if you could share measured inhibition at 1 µM for these entries.
System: Huh-7 HCV replicon cells (1b replicon)
assay_notes: anti-HCV activity in Huh-7 cell line harboring a HCV replicon (luciferase readout)
Format: cell-based
condition_context: Hepatitis C virus, Huh-7, read-out: Replicon 1b % inhibition at 1 μM, 1b replicon, 1 μM compound
Give the value in % but do not write % after it.

The reported value for `C[C@@H]1NC(=O)[C@H](C2CCOCC2)OC(=O)C(C)(C)/C=C/c2ccc3ccc(nc3c2)[C@@H](C)NC(=O)[C@@H]2CCCN(N2)C1=O` in terms of inhibition at 1 µM is 67

The reported value for `C[C@@H]1NC(=O)[C@H](C)OC(=O)C(C)(C)/C=C/c2ccc3ccc(nc3c2)[C@@H](C)NC(=O)[C@@H]2CCCN(N2)C1=O` in terms of inhibition at 1 µM is 46

The reported value for `CCCC(=O)O[C@H]1CC[C@]2(/C=C/c3ccc4ccc(nc4c3)[C@@H](C)NC(=O)[C@@H]3CCCN(N3)C(=O)[C@H](C)NC(=O)[C@H](C(C)C)OC2=O)CC1` in terms of inhibition at 1 µM is 99

---

pIC50: −log10 of the molar value.
readout: pIC50

Tested system cyclophilin A (Homo sapiens, UniProt P62937); pIC50 recorded for `CC(C)[C@@H]1OC(=O)C(C)(C)C/C=C/c2cc3cc(ccc3cn2)[C@@H](C)NC(=O)[C@@H]2CCCN(N2)C(=O)[C@H](C)NC1=O` was > 7.00

Tested system cyclophilin A (Homo sapiens, UniProt P62937); pIC50 recorded for COCC1NC(=O)C(C(C)C)OC(=O)C(C)(C)C=Cc2ccc3ccc(nc3c2)C(C)NC(=O)C2CCCN(N2)C1=O (single isomer, unassigned) was 6.00 to 7.00

Tested system cyclophilin A (Homo sapiens, UniProt P62937); pIC50 recorded for `CC(C)[C@@H]1OC(=O)[C@@]2(/C=C/c3ccc4ccc(nc4c3)[C@@H](C)NC(=O)[C@@H]3CCCN(N3)C(=O)[C@H](C)NC1=O)CCOC(C)(C)C2` was > 7.00

Tested system cyclophilin A (Homo sapiens, UniProt P62937); pIC50 recorded for CC(F)[C@@H]1OC(=O)C(C)(C)/C=C/c2ccc3ccc(nc3c2)[C@@H](C)NC(=O)[C@@H]2CCCN(N2)C(=O)[C@H](C)NC1=O (some centres unmarked) was > 7.00

Tested system cyclophilin A (Homo sapiens, UniProt P62937); pIC50 recorded for `CCCC(=O)O[C@H]1CC[C@]2(/C=C/c3ccc4ccc(nc4c3)[C@@H](C)NC(=O)[C@@H]3CCCN(N3)C(=O)[C@H](C)NC(=O)[C@H](C(C)C)OC2=O)CC1` was > 7.00

---

System: Huh-7 HCV replicon cells (1b replicon)
assay_notes: anti-HCV activity in Huh-7 cell line harboring a HCV replicon (luciferase readout)
Format: cell-based
condition_context: Hepatitis C virus, Huh-7, read-out: Replicon 1b % inhibition at 1 μM, 1b replicon, 1 μM compound
I'd be grateful if you could share measured inhibition at 1 µM for these entries.

Tested system Huh-7 HCV replicon cells (1b replicon); inhibition at 1 µM recorded for `CO[C@H](C)[C@@H]1OC(=O)C(C)(C)/C=C/c2ccc3ccc(nc3c2)[C@@H](C)NC(=O)[C@@H]2CCCN(N2)C(=O)[C@H](C)NC1=O` was 96%

Tested system Huh-7 HCV replicon cells (1b replicon); inhibition at 1 µM recorded for CC(C)[C@@H]1OC(=O)C2(/C=C/c3ccc4ccc(nc4c3)[C@@H](C)NC(=O)[C@@H]3CCCN(N3)C(=O)[C@H](C)NC1=O)CCCOC2 (single isomer, unassigned) [Compound 50] was 100%

Tested system Huh-7 HCV replicon cells (1b replicon); inhibition at 1 µM recorded for CC(C)[C@@H]1OC(=O)C2(/C=C/c3ccc4ccc(nc4c3)[C@@H](C)NC(=O)[C@]3(C)CCCN(N3)C(=O)[C@H](C)NC1=O)CCC(O)CC2 (mixture of isomers) was 94%

Tested system Huh-7 HCV replicon cells (1b replicon); inhibition at 1 µM recorded for CC1/C=C/c2cc3cc(ccc3cn2)[C@@H](C)NC(=O)[C@@H]2CCCN(N2)C(=O)[C@H](C)NC(=O)[C@H](C(C)C)OC1=O (stereo partly shown) was 93%

Tested system Huh-7 HCV replicon cells (1b replicon); inhibition at 1 µM recorded for CC1/C=C/c2ccc3ccc(nc3c2)[C@@H](C)NC(=O)[C@@H]2CCCN(N2)C(=O)[C@H](C)NC(=O)[C@H](C(C)C)OC1 (single isomer, unassigned) [Compound 35] was 88%

Tested system Huh-7 HCV replicon cells (1b replicon); inhibition at 1 µM recorded for COC1CCC2(/C=C/c3ccc4ccc(nc4c3)[C@@H](C)NC(=O)[C@@H]3CCCN(N3)C(=O)[C@H](C)NC(=O)[C@H](C(C)C)OC2=O)CC1 (stereo partly shown) was 100%

Tested system Huh-7 HCV replicon cells (1b replicon); inhibition at 1 µM recorded for `CC(C)[C@@H]1OC(=O)C(C)(C)/C=C/c2ccc3ccc(nc3c2)[C@@H](C)N(C)C(=O)[C@@H]2CCCN(N2)C(=O)[C@H](C)NC1=O` was 100%

Tested system Huh-7 HCV replicon cells (1b replicon); inhibition at 1 µM recorded for `CC(C)[C@H]1C(=O)N[C@@H](C)C(=O)N2CCC[C@H](N2)C(=O)O[C@H](C)c2ccc3ccc(cc3n2)/C=C/C(C)(C)CN1C` was 68%

Tested system Huh-7 HCV replicon cells (1b replicon); inhibition at 1 µM recorded for `CC(C)[C@@H]1OCCCCCc2cc3cc(ccc3cn2)[C@@H](C)OC(=O)[C@@H]2CCCN(N2)C(=O)[C@H](C)NC1=O` was 83%

Tested system Huh-7 HCV replicon cells (1b replicon); inhibition at 1 µM recorded for `CC(C)[C@@H]1OC(=O)C(C)(C)/C=C/c2ccc3ccc(nc3c2)[C@@H](C)N(C)C(=O)[C@@H]2CCCN(N2)C(=O)[C@H](CO)NC1=O` was 98%

Tested system Huh-7 HCV replicon cells (1b replicon); inhibition at 1 µM recorded for `CO[C@@H]1CC/C=C/c2cccc(c2)[C@@H](C)NC(=O)[C@@H]2CCCN(N2)C(=O)[C@H](C)NC(=O)[C@H](C(C)C)OC(=O)[C@@H]1C` was 97%

Tested system Huh-7 HCV replicon cells (1b replicon); inhibition at 1 µM recorded for `CC(C)[C@@H]1OC(=O)[C@]2(/C=C/c3ccc4ccc(nc4c3)[C@@H](C)NC(=O)[C@@H]3CCCN(N3)C(=O)[C@H](C)NC1=O)CCOC(C)(C)C2` was 100%

Tested system Huh-7 HCV replicon cells (1b replicon); inhibition at 1 µM recorded for `C[C@@H]1NC(=O)[C@@H](C2CC2)OC(=O)C(C)(C)/C=C/c2ccc3ccc(nc3c2)[C@@H](C)NC(=O)[C@@H]2CCCN(N2)C1=O` was 3%

Tested system Huh-7 HCV replicon cells (1b replicon); inhibition at 1 µM recorded for `CC(C)[C@@H]1OC(=O)C2(/C=C/c3ccc4ccc(nc4c3)[C@@H](C)NC(=O)[C@@H]3CCCN(N3)C(=O)[C@H](C)NC1=O)CCN(C(=O)OC(C)(C)C)CC2` was 10%

Tested system Huh-7 HCV replicon cells (1b replicon); inhibition at 1 µM recorded for COCC1NC(=O)C(C(C)C)OC(=O)C(C)(C)C=Cc2ccc3ccc(nc3c2)C(C)NC(=O)C2CCCN(N2)C1=O (single isomer, unassigned) was 16%

Tested system Huh-7 HCV replicon cells (1b replicon); inhibition at 1 µM recorded for `CCC[C@@H]1CCCc2cc3cc(ccc3cn2)[C@@H](C)NC(=O)[C@@H]2CCCN(N2)C(=O)[C@H](C)NC(=O)[C@H](C(C)C)OC1=O` was 100%

Tested system Huh-7 HCV replicon cells (1b replicon); inhibition at 1 µM recorded for `CC(C)[C@@H]1OC(=O)[C@@](C)(COC(F)(F)F)/C=C/c2ccc3ccc(nc3c2)[C@@H](C)NC(=O)[C@@H]2CCCN(N2)C(=O)[C@H](C)NC1=O` was 99%

Tested system Huh-7 HCV replicon cells (1b replicon); inhibition at 1 µM recorded for `CC(C)[C@@H]1OC(=O)C2(/C=C/c3ccc4ccc(nc4c3)[C@@H](C)NC(=O)[C@@H]3CCCN(N3)C(=O)[C@H](C)NC1=O)CCS(=O)(=O)CC2` was 95%

Tested system Huh-7 HCV replicon cells (1b replicon); inhibition at 1 µM recorded for CC1/C=C/c2ccc3ccc(nc3c2)[C@@H](C)NC(=O)[C@@H]2CCCN(N2)C(=O)[C@H](C)NC(=O)[C@H](C(C)C)OC1 (single isomer, unassigned) [Compound 34] was 91%
